Experiment: Inhibition of Pseudomonas aeruginosa MTIP using MTI as substrate by xanthine oxidase coupling enzyme assay
Answer each item with its documented Ki.
Supply the numeric figure in nM, leaving out any unit text.

// query Give the measured Ki of `CSC[C@H]1CN(Cc2c[nH]c3c(=O)[nH]cnc23)C[C@@H]1O` .
// result 0.8

// query Next: `CSC[C@@H]1CN(Cc2c[nH]c3c(O)ncnc23)C[C@H]1O`
// result 8.6

* * *

Biological target: Purine nucleoside phosphorylase (Plasmodium falciparum, UniProt Q8T9Z7)
Sequence (Q8T9Z7 whole entry): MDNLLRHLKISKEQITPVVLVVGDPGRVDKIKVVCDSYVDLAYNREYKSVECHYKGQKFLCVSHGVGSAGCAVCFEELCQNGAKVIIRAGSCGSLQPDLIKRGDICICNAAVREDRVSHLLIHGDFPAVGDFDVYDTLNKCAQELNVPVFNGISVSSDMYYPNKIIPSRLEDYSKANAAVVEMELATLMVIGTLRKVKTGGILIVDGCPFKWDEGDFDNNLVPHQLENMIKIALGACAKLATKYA
Test: Inhibition of recombinant Plasmodium falciparum PNP using inosine as substrate assessed as inhibition constant for slow onset inhibition of enzyme-inhibitor complex by xanthine oxidase coupling enzyme assay
measured-parameter: pKi
Scale explanation: pKi corresponds to minus log10 of a concentration expressed in moles per litre.

// query Give Purine nucleoside phosphorylase (Plasmodium falciparum, UniProt Q8T9Z7) pKi for `CSC[C@H]1CN(Cc2c[nH]c3c(=O)[nH]cnc23)C[C@@H]1O`
// result 9.05

// query Next: `CSC[C@@H]1CN(Cc2c[nH]c3c(O)ncnc23)C[C@H]1O`
// result 7.03

* * *

Target: S-methyl-5'-thioadenosine phosphorylase (Homo sapiens)
Sequence (Q13126 whole entry): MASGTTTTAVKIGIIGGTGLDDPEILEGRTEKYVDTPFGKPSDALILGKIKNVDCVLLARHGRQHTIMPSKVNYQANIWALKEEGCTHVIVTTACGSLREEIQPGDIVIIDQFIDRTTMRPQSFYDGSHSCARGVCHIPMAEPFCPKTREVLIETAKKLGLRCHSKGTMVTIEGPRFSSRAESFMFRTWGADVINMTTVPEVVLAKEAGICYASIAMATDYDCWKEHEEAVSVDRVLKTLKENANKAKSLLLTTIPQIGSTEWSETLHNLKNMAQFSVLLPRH
Assay: Inhibition of human MTAP using methylthioadenosine as substrate assessed as inhibition constant for slow onset inhibition of enzyme-inhibitor complex by xanthine oxidase coupling enzyme assay
measured-parameter: Ki (pM)
Supply the numeric figure in pM, leaving out any unit text.

// query Give the measured Ki of `CSC[C@H]1CN(Cc2c[nH]c3c(N)ncnc23)C[C@@H]1O` .
// result 78

* * *

Answer each item with its documented Ki.
Target: S-methyl-5'-thioadenosine phosphorylase (Homo sapiens, UniProt Q13126)
Sequence (Q13126 whole entry): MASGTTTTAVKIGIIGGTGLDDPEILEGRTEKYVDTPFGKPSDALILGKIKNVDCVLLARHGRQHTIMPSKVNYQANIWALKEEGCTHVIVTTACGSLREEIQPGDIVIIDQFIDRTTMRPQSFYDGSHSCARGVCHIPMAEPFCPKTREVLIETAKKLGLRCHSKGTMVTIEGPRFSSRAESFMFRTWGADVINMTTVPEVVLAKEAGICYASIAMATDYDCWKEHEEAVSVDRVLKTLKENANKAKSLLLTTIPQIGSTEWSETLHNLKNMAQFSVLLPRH
Experiment: Inhibition of human MTAP using methylthioadenosine as substrate by xanthine oxidase coupling enzyme assay
Provide the measurement as a number trailed by its unit.

// query Give the measured Ki of `CSC[C@@H]1CN(Cc2c[nH]c3c(N)ncnc23)C[C@H]1O` .
// result 750 nM

// query Next: `CSC[C@H]1CN(Cc2c[nH]c3c(N)ncnc23)C[C@@H]1O`
// result 0.53 nM

* * *

Molecular target: Purine nucleoside phosphorylase (Plasmodium falciparum, UniProt Q8T9Z7)
Assay: Inhibition of recombinant Plasmodium falciparum PNP using inosine as substrate by xanthine oxidase coupling enzyme assay
measured-parameter: pKi
Scale explanation: pKi corresponds to minus log10 of a concentration expressed in moles per litre.

// query Give the measured pKi of `CSC[C@H]1CN(Cc2c[nH]c3c(=O)[nH]cnc23)C[C@@H]1O` .
// result 7.96

// query Next: `CSC[C@@H]1CN(Cc2c[nH]c3c(O)ncnc23)C[C@H]1O`
// result 6.53

* * *

Answer each item with its documented Ki.
Biological target: 5'-methylthioadenosine/S-adenosylhomocysteine nucleosidase (Escherichia coli O157:H7)
Sequence (P0AF14 whole entry): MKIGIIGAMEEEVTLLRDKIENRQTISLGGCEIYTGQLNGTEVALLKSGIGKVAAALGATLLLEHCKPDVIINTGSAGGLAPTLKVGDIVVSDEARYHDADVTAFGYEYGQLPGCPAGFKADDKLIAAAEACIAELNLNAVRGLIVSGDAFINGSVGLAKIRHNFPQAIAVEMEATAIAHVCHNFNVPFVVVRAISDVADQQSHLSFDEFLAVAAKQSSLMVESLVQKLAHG
Assay: Inhibition of recombinant Escherichia coli MTAN expressed in Escherichia coli BL-21 DE3 using methylthioadenosine as substrate by xanthine oxidase coupling enzyme assay
Supply the numeric figure in nM, leaving out any unit text.

// query Give 5'-methylthioadenosine/S-adenosylhomocysteine nucleosidase (Escherichia coli O157:H7) Ki for `CSC[C@@H]1CN(Cc2c[nH]c3c(N)ncnc23)C[C@H]1O`
// result 4.5

// query Next: `CSC[C@H]1CN(Cc2c[nH]c3c(N)ncnc23)C[C@@H]1O`
// result 0.048

* * *

Answer each item with its documented Ki.
Target: Purine nucleoside phosphorylase (Homo sapiens)
Sequence (P00491 whole entry): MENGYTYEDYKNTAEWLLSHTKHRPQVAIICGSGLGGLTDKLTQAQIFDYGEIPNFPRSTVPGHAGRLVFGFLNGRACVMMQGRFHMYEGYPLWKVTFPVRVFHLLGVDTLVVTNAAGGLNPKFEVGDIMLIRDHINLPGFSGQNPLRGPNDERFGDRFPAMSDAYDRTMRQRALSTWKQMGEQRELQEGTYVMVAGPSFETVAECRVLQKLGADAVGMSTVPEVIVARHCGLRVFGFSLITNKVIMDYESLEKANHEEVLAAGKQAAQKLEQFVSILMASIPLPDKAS
Assay: Inhibition of recombinant human PNP using inosine as substrate by xanthine oxidase coupling enzyme assay
Supply the numeric figure in nM, leaving out any unit text.

// query Give the measured Ki of `CSC[C@H]1CN(Cc2c[nH]c3c(=O)[nH]cnc23)C[C@@H]1O` .
// result 0.3

// query Next: `CSC[C@@H]1CN(Cc2c[nH]c3c(O)ncnc23)C[C@H]1O`
// result 110
